Biological target: FGFR3 (as measured by BIAcore, Table 1) (UniProt P22607)
Experiment: BIAcore (receptor not given)
Catalogue of koff readings, one per entry.
Write the answer as a number in s⁻¹, unit excluded.

# annotated cases, reported koff shown
binder="PRO-026 (Fab, V domains shown) VH: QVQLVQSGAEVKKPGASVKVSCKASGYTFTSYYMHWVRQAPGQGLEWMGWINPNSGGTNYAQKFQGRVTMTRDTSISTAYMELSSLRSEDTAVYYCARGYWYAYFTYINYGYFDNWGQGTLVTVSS VL: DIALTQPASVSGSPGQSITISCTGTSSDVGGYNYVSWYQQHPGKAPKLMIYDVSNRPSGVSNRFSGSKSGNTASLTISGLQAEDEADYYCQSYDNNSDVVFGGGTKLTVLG" measured_endpoint=koff reported=0.0005
binder="PRO-012 (Fab, V domains shown) VH: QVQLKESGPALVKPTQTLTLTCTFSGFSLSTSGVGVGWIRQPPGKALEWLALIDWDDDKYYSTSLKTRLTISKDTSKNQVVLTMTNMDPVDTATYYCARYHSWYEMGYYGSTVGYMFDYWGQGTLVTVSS VL: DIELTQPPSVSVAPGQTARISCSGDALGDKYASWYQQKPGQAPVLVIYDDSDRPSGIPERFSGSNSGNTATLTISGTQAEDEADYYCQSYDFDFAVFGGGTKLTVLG" measured_endpoint=koff reported=0.0023

Read the next record carefully.
PRO-002 (Fab, V domains shown) VH: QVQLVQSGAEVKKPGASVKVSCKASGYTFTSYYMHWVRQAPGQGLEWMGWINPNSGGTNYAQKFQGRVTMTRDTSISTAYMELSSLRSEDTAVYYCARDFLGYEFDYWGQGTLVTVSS VL: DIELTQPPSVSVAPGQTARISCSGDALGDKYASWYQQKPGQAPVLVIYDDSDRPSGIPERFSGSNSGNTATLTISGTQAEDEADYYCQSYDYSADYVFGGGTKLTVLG yielded koff of 0.02
